molecular target: BRD4 (BDII_E352-M457) (Homo sapiens, UniProt O60885); construct: proliferation; Protocol; assay: TR-FRET bromodomain binding assay, second bromodomain of BRD4; settings: His-tagged BD2, 30 nM Alexa647 probe; TR-FRET protocol A-E given per row
The following compounds are listed with their measured log10 of Ki values.
Recall that a logarithmic scale is used here: each number is log10 of Ki in nM.

The cases that follow already have their log10 of Ki on record.
[
  {
    "compound": "Cn1cc(-c2cc(S(C)(=O)=O)ccc2OCC2CC2(F)F)c2cc[nH]c(=O)c21 (centres unmarked) [Example 42]",
    "log10 of Ki": 1.90
  },
  {
    "compound": "Cn1cc(-c2cc(S(C)(=O)=O)ccc2Oc2ccc(F)cc2F)c2cc[nH]c(=O)c21 [Example 17]",
    "log10 of Ki": 1.58
  },
  {
    "compound": "Cn1cc(-c2cc(S(C)(=O)=O)ccc2NCCC2CCCC2)c2cc[nH]c(=O)c21 [Example 72]",
    "log10 of Ki": 2.99
  }
]

Summary: CCS(=O)(=O)c1ccc(Oc2ccc(F)cc2F)c(-c2cn(C)c3c(=O)[nH]c(/C=C(\Cl)CCO)cc23)c1 [Example 126] , BRD4 (BDII_E352-M457) (Homo sapiens, UniProt O60885), log10 of Ki = 0.76

Form: item CN(C)S(=O)(=O)Cc1ccc(Oc2ccc(F)cc2F)c(-c2cn(C)c3c(=O)[nH]ccc23)c1 [Example 101] ; test system BRD4 (BDII_E352-M457) (Homo sapiens, UniProt O60885); log10 of Ki: 0.40

GET /values?item= Cn1cc(-c2cc(CS(C)(=O)=O)ccc2NCC2CC2)c2cc[nH]c(=O)c21 [Example 110] &system= BRD4 (BDII_E352-M457) (Homo sapiens, UniProt O60885) returns log10 of Ki: 2.33

Cn1cc(-c2cc(CNS(=O)(=O)Cc3ccc(C#N)cc3)ccc2Oc2ccc(F)cc2F)c2cc[nH]c(=O)c21 [Example 134] tested on BRD4 (BDII_E352-M457) (Homo sapiens, UniProt O60885) gave log10 of Ki: 2.71

The measured log10 of Ki that Cn1cc(-c2cc(S(C)(=O)=O)ccc2OCCC2CCCCC2)c2cc[nH]c(=O)c21 [Example 36] showed for BRD4 (BDII_E352-M457) (Homo sapiens, UniProt O60885) is 2.71
